Data origin, for the record: patent US20230072421A1

measurement_notes: Biodistribution study in LNCaP tumor-bearing mice (Th227 counted in organs)
Assay type: in vivo, SCID mice
experimental_setup: 24 h; 1500 kBq/kg
Let's look at some molecules and their measured Th-227 in Liver.
# unit: % ID Th-227/g organ | format: bare number

So what does the record say about Th-227 in Liver for O=C([O-])CN1CCN(CC(=O)[O-])CCN(CC(=O)NCC2CCC(C(=O)NC(Cc3ccc4ccccc4c3)C(=O)NCCCCC(NC(=O)NC(CCC(=O)O)C(=O)O)C(=O)O)CC2)CCN(CC(=O)[O-])CC1.[227Th+4] (stereo not shown) [Example 1-B-227Th] ?
1.05

Which measured Th-227 in Liver value corresponds to O=C([O-])CN1CCN(CC(=O)[O-])CCN(CC(=O)NCC2CCC(C(=O)NC(Cc3ccc4ccccc4c3)C(=O)NCCCCC(NC(=O)NC(CCC(=O)O)C(=O)O)C(=O)O)CC2)CCN(CC(=O)[O-])CC1.[227Th+4] [Example 1-B-D-227Th] ?
0.31

Which Th-227 in Liver is reported for this molecule? Cc1cc(C(=O)NCCN(CCCN(CCNC(=O)c2cc(C)n(CC(=O)O)c(=O)c2[O-])CCNC(=O)c2cc(C)n(CC(=O)NCC3CCC(C(=O)NC(Cc4cnc5ccccc5c4)C(=O)NCCCCC(NC(=O)NC(CCC(=O)O)C(=O)O)C(=O)O)CC3)c(=O)c2[O-])CCNC(=O)c2cc(C)n(CC(=O)NCC3CCC(C(=O)NC(Cc4cnc5ccccc5c4)C(=O)NCCCCC(NC(=O)NC(CCC(=O)O)C(=O)O)C(=O)O)CC3)c(=O)c2[O-])c([O-])c(=O)n1CC(=O)O.[227Th+4] (stereo not shown) [Example 22-C dimer-227Th]
078

Name the recorded Th-227 in Liver for O=C([O-])CN1CCN(CC(=O)[O-])CCN(CC(=O)NCc2ccc(C(=O)N[C@@H](Cc3ccc4ccccc4n3)C(=O)NCCCC[C@H](NC(=O)N[C@@H](CCC(=O)O)C(=O)O)C(=O)O)nc2)CCN(CC(=O)[O-])CC1.[227Th+4] [Example 34-B-227Th] .
0.23

###

Measured Th-227 in Tumor values are reported for all entries that follow.
measurement_notes: Biodistribution study in LNCaP tumor-bearing mice (Th227 counted in organs)
Format: in vivo, SCID mice
experimental_setup: 1 hr; 1500 kBq/kg

Please give the measured Th-227 in Tumor for this compound: O=C([O-])CN1CCN(CC(=O)[O-])CCN(CC(=O)NCC2CCC(C(=O)NC(Cc3ccc4ccccc4c3)C(=O)NCCCCC(NC(=O)NC(CCC(=O)O)C(=O)O)C(=O)O)CC2)CCN(CC(=O)[O-])CC1.[227Th+4] (stereo not shown) [Example 1-B-227Th]
7.34% ID Th-227/g organ

Endpoint output: Th-227 in Tumor of O=C([O-])CN1CCN(CC(=O)[O-])CCN(CC(=O)NCC2CCC(C(=O)NC(Cc3ccc4ccccc4c3)C(=O)NCCCCC(NC(=O)NC(CCC(=O)O)C(=O)O)C(=O)O)CC2)CCN(CC(=O)[O-])CC1.[227Th+4] [Example 1-B-D-227Th] . Value?
1.16% ID Th-227/g organ

So what does the record say about Th-227 in Tumor for O=C([O-])CN1CCN(CC(=O)[O-])CCN(CC(=O)NCc2ccc(C(=O)N[C@@H](Cc3ccc4ccccc4n3)C(=O)NCCCC[C@H](NC(=O)N[C@@H](CCC(=O)O)C(=O)O)C(=O)O)nc2)CCN(CC(=O)[O-])CC1.[227Th+4] [Example 34-B-227Th] ?
9.15% ID Th-227/g organ

If you can, please state the reported Th-227 in Tumor value of Cc1cc(C(=O)NCCN(CCCN(CCNC(=O)c2cc(C)n(CC(=O)O)c(=O)c2[O-])CCNC(=O)c2cc(C)n(CC(=O)NCC3CCC(C(=O)NC(Cc4cnc5ccccc5c4)C(=O)NCCCCC(NC(=O)NC(CCC(=O)O)C(=O)O)C(=O)O)CC3)c(=O)c2[O-])CCNC(=O)c2cc(C)n(CC(=O)NCC3CCC(C(=O)NC(Cc4cnc5ccccc5c4)C(=O)NCCCCC(NC(=O)NC(CCC(=O)O)C(=O)O)C(=O)O)CC3)c(=O)c2[O-])c([O-])c(=O)n1CC(=O)O.[227Th+4] (stereo not shown) [Example 22-C dimer-227Th] .
4.49% ID Th-227/g organ
